target: Epidermal growth factor receptor (Homo sapiens); test: Concentration required for inhibition of epidermal growth factor receptor (EGF-R) by tyrosine kinase enzyme activity
Sequence (P00533 whole entry): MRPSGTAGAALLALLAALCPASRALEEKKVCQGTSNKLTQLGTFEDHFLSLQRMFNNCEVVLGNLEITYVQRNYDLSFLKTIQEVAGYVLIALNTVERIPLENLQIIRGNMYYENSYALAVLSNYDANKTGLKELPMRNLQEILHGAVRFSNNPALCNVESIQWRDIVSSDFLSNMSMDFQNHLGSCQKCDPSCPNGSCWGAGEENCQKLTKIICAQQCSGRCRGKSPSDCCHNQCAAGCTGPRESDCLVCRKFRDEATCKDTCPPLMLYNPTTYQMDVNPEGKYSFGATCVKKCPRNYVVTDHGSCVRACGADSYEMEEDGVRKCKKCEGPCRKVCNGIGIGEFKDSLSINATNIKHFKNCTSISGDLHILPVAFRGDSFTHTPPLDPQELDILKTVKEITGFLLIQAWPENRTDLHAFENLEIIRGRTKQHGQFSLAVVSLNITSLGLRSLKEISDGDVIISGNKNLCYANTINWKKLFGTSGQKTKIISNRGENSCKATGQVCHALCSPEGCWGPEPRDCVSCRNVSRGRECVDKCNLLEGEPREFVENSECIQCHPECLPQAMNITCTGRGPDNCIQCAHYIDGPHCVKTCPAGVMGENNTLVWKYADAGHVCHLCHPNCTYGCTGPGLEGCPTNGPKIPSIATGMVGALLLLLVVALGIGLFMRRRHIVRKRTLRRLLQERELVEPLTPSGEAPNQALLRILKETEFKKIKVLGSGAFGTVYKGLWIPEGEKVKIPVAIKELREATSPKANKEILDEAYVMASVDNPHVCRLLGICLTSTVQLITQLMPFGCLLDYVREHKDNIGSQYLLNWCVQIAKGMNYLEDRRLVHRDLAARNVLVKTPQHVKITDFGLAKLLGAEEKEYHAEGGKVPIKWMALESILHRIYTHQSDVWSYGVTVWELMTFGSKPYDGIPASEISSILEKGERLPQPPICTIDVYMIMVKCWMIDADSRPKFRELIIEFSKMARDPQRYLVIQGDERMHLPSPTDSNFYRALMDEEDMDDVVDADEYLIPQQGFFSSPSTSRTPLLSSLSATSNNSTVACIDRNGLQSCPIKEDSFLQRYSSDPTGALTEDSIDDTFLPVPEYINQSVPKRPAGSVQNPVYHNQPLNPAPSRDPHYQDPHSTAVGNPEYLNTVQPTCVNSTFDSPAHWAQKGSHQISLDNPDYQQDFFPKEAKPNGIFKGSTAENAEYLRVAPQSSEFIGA
readout_type: IC50 (nM)

P. Nc1ncnc2c1c(-c1cccc(O)c1)cn2C1CCN(CCO)CC1
Q. COc1cccc(-c2cn(C3CCN(CCN(C)CCO)CC3)c3ncnc(N)c23)c1
R. COc1cccc(-c2cn(C3CCN(CCO)CC3)c3ncnc(N)c23)c1
S. CN(C)C(=O)CN1CCC(n2cc(-c3cccc(O)c3)c3c(N)ncnc32)CC1
Which order do the above compounds take when sorted by rising IC50? Smallest first. Order the labels as requested and give them as your answer.
Q, S, R, P

----------
These records show pIC50 for Proto-oncogene tyrosine-protein kinase Src (Homo sapiens, UniProt P12931).
pIC50: −log10 of the molar value.
readout_type: pIC50

Nc1ncnc2c1c(-c1ccc(O)cc1)cn2[C@H]1CNC(CO)C1 (single isomer, unassigned) = 7.30
CN(C)C(=O)CN1CCC(n2cc(-c3cccc(O)c3)c3c(N)ncnc32)CC1 = 8.52
Nc1ncnc2c1c(-c1cccc(O)c1)cn2C1CCN(CCO)CC1 = 9.00
COC(=O)CN1CCC(n2cc(-c3cccc(O)c3)c3c(N)ncnc32)C1 (centres undefined) = 8.52
NC(=O)CN1CCC(n2cc(-c3cccc(O)c3)c3c(N)ncnc32)C1 (centres undefined) = 8.40
CC(C)(C)OC(=O)N1CCC(n2cc(-c3cccc(O)c3)c3c(N)ncnc32)C1 (centres undefined) = 8.30

1. CCOC(=O)C[C@H]1C[C@H](n2cc(-c3ccccc3)c3c(N)ncnc32)CN1C(=O)OC(C)(C)C
2. CC(C)(C)OC(=O)N1C[C@@H](n2cc(-c3ccc(O)cc3)c3c(N)ncnc32)C[C@@H]1CO
Returns the identifier with the smallest measured pIC50 among 1 and 2 . Answer = label.
1

----------
target: Tyrosine-protein kinase ABL (Homo sapiens, UniProt P00519+P42684); experiment: Inhibition of v-Abl receptor tyrosine kinase enzyme activity; format: protein assay
readout_type: IC50 (nM)
Give the number; nM is assumed, so skip it.

Quick check: IC50 on Tyrosine-protein kinase ABL (Homo sapiens, UniProt P00519+P42684), item "COCCNCCN1CCC(n2cc(-c3cccc(OC)c3)c3c(N)ncnc32)CC1" ?
310

----------
These records show IC50 for Tyrosine-protein kinase ABL (Homo sapiens, UniProt P00519+P42684).
readout_type: IC50 (nM)

COc1cccc(-c2cn(C3CCN(C(=O)OC(C)(C)C)C3)c3ncnc(N)c23)c1 (stereo not given) = 2400
COC(=O)CN1CCC(n2cc(-c3cccc(OC)c3)c3c(N)ncnc32)C1 (stereo not given) = 590
COCCN(C)CCN1CCC(n2cc(-c3cccc(OC)c3)c3c(N)ncnc32)CC1 = 500
Nc1ncnc2c1c(-c1ccc(O)cc1)cn2C1CCNC1 (stereo not given) = 2800
Nc1ncnc2c1c(-c1cccc(O)c1)cn2C1CCNC1 (stereo not given) = 290
COc1cccc(-c2cn(C3CCNC3)c3ncnc(N)c23)c1 (stereo not given) = 1400

A. CN(C)C(=O)CN1CCC(n2cc(-c3cccc(O)c3)c3c(N)ncnc32)CC1
B. COc1cccc(-c2cn(C3CCN(CCO)CC3)c3ncnc(N)c23)c1
C. COc1cccc(-c2cn(C3CCN(CCN(C)CCO)CC3)c3ncnc(N)c23)c1
D. NC(=O)CN1CCC(n2cc(-c3cccc(O)c3)c3c(N)ncnc32)CC1
Sort the 4 compounds by IC50; largest first, smallest last. Order the labels as requested and give them as your answer.
B, C, D, A
(B: 1030 nM, C: 360 nM, D: 210 nM, A: 120 nM)
